Tested on: MDA-MB-231
Assay: Cellular growth inhibition assay (CellTiter-Glo)
Assay type: cell-based
Settings: Homo sapiens, 120 h; MDA-MB-231, 5 days; read-out: MDA-MB-231 EC50 (μM) 5 days
measurement type: EC50 (µM)

>  <structure smiles string>
C=CCn1c(=O)c2cnc(Nc3ccc(N4CCN(Cc5ccc(-c6[nH]c7cc(F)cc8c7c6CCNC8=O)cc5)CC4)cc3)nc2n1-c1cccc(C(C)(C)O)n1

>  <observed measurement>
0.98

$$$$
>  <structure smiles string>
Cn1c(=O)c2cnc(Nc3ccc(N4CCN(C(=O)c5cc(Cc6n[nH]c(=O)c7ccccc67)ccc5F)CC4)cc3)nc2n1-c1ncccn1

>  <observed measurement>
8.76

$$$$
>  <structure smiles string>
C=CCn1c(=O)c2cnc(Nc3ccc(N4CCN(C(=O)c5cc(Cc6n[nH]c(=O)c7ccccc67)ccc5F)CC4)cc3)nc2n1-c1cccc(C(C)(C)O)c1

>  <observed measurement>
0.69

$$$$

====

Recorded EC50 by entry
Biological target: recombinant PARP1 (AA662-1014) protein (Homo sapiens (Human), UniProt P09874)
Sequence (P09874 662-1014): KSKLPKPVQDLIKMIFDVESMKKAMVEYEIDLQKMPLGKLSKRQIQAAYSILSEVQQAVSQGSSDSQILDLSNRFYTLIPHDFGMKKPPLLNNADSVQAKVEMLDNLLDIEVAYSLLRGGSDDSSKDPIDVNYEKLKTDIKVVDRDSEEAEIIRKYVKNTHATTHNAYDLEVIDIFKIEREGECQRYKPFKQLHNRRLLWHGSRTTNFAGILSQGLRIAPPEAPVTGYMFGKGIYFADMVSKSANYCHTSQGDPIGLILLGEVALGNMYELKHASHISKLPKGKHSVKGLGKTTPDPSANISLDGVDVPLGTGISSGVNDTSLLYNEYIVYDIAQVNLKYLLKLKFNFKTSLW
Assay: Tracer displacement fluorescence polarization assay
Conditions: displacement of AlexaFluor488 tracer from NAD+-binding site, PARP1 25 nM
measurement type: EC50

>  <compound>
Cn1c2nc(Nc3ccc(N4CCC(c5nc6cccc(C(N)=O)c6[nH]5)CC4)cc3)ncc2c(=O)n1-c1ccccn1 [Compound 91]

>  <observed measurement>
10 to 100 nM

$$$$
>  <compound>
C=CCn1c(=O)c2cnc(Nc3ccc(N4CCN(C(=O)c5cc(Cn6c(=O)[nH]c(=O)c7c(F)cccc76)ccc5F)CC4)cc3)nc2n1-c1cccc(C(C)(C)O)n1 [Compound 16]

>  <observed measurement>
< 10 nM

$$$$
>  <compound>
C=CCn1c(=O)c2cnc(Nc3ccc(N4CCN(C(=O)c5cc(Cc6n[nH]c(=O)c7ccccc67)ccc5F)CC4)cc3)nc2n1-c1ccccn1 [Compound 10]

>  <observed measurement>
< 10 nM

$$$$
>  <compound>
Cn1c(=O)c2cnc(Nc3ccc(NC(=O)c4cc(Cn5c(=O)[nH]c(=O)c6c(F)cccc65)ccc4F)cc3)nc2n1-c1ccccn1 [Compound 33]

>  <observed measurement>
≥ 1 nM

$$$$
>  <compound>
C=CCn1c(=O)c2cnc(Nc3ccc(N4CCN(Cc5cc(Cc6n[nH]c(=O)c7ccccc67)ccc5F)CC4)cc3)nc2n1-c1cccc(C(C)(C)O)n1 [Compound 14]

>  <observed measurement>
100 to 1000 nM

$$$$
>  <compound>
COCCn1c(=O)c2cnc(Nc3ccc(N4CCN(C(=O)c5cc(Cc6n[nH]c(=O)c7ccccc67)ccc5F)CC4)cc3)nc2n1-c1cccc(C(C)(C)O)n1 [Compound 13]

>  <observed measurement>
< 10 nM

$$$$
>  <compound>
C=CCn1c(=O)c2cnc(Nc3ccc(N4CCN(C(=O)c5cc(Cn6c(=O)[nH]c(=O)c7c(F)cccc76)ccc5F)CC4)cc3)nc2n1-c1ccccn1 [Compound 28]

>  <observed measurement>
< 10 nM

$$$$
>  <compound>
C=CCn1c(=O)c2cnc(NC3CCN(C(=O)c4cc(Cc5n[nH]c(=O)c6ccccc56)ccc4F)CC3)nc2n1-c1cccc(C(C)(C)O)n1 [Compound 4]

>  <observed measurement>
100 to 1000 nM

$$$$
>  <compound>
Cn1c(=O)c2cnc(Nc3ccc(N4CCCC(c5nc6cccc(C(N)=O)c6[nH]5)C4)cc3)nc2n1-c1ccccn1 (centres unmarked) [Compound 96]

>  <observed measurement>
10 to 100 nM

$$$$
>  <compound>
Cn1c(=O)c2cnc(Nc3ccc(N4CCN(Cc5ccc(-c6[nH]c7cc(F)cc8c7c6CCNC8=O)cc5)CC4)cc3)nc2n1-c1ccccn1 [Compound 36]

>  <observed measurement>
< 10 nM

$$$$
>  <compound>
Cn1c(=O)c2cnc(N3CCN(C(=O)c4cc(Cc5n[nH]c(=O)c6ccccc56)ccc4F)CC3)nc2n1-c1ccccn1 [Compound 5]

>  <observed measurement>
10 to 100 nM

$$$$

====

Target: recombinant Wee1 protein (Homo sapiens (Human), UniProt P30291)
Sequence (P30291 whole entry): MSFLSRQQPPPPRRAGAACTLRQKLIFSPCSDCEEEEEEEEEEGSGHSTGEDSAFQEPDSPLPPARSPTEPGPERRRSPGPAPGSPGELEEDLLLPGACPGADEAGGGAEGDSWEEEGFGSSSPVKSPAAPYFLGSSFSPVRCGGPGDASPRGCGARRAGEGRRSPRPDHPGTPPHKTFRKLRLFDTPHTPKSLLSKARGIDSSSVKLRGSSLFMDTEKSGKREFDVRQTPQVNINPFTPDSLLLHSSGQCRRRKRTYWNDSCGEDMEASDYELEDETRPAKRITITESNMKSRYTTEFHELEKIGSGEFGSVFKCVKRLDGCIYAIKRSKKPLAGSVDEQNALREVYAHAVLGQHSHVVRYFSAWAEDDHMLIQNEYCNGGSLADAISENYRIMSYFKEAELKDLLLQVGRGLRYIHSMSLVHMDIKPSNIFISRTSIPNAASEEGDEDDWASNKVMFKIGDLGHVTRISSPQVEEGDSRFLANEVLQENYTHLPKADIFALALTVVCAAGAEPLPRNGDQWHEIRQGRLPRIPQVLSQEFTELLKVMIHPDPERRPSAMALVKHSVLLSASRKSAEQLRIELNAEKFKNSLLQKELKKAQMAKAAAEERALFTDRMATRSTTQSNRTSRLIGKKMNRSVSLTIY
Assay: Wee1 enzymatic activity inhibition, ADP-Glo luminescence assay
Conditions: recombinant Wee1, PolyE4Y1 substrate, 1 h room temperature

>  <structure smiles string>
O=C(c1cc(Cc2n[nH]c(=O)c3ccccc23)ccc1F)N1CCN(c2ccc(Nc3ncc4c(=O)n(CCO)n(-c5ccccn5)c4n3)cc2)CC1

>  <EC50>
100 to 1000 nM

$$$$
>  <structure smiles string>
COCCn1c(=O)c2cnc(Nc3ccc(N4CCN(Cc5ccc(-c6[nH]c7cc(F)cc8c7c6CCNC8=O)cc5)CC4)cc3)nc2n1-c1ccccn1

>  <EC50>
100 to 1000 nM

$$$$
>  <structure smiles string>
Cn1c(=O)c2cnc(Nc3ccc(NC(=O)c4cc(Cn5c(=O)[nH]c(=O)c6c(F)cccc65)ccc4F)cc3)nc2n1-c1ccccn1

>  <EC50>
100 to 1000 nM

$$$$
>  <structure smiles string>
Cn1c(=O)c2cnc(Nc3ccc(N4CCN(C(=O)c5cc(Cc6n[nH]c(=O)c7ccccc67)ccc5F)CC4)cc3)nc2n1-c1ncccn1

>  <EC50>
10 to 100 nM

$$$$
>  <structure smiles string>
C=CCn1c(=O)c2cnc(Nc3ccc(N4CCN(Cc5ccc(-c6[nH]c7cc(F)cc8c7c6CCNC8=O)cc5)CC4)cc3)nc2n1-c1cccc(C(C)(C)O)n1

>  <EC50>
10 to 100 nM

$$$$
>  <structure smiles string>
Cn1c(=O)c2cnc(Nc3ccc(N4CCN(C(=O)c5cc(Cn6c(=O)[nH]c(=O)c7c(F)cccc76)ccc5F)CC4)cc3)nc2n1-c1ccccn1

>  <EC50>
10 to 100 nM

$$$$

====

Molecular target: recombinant Wee1 protein (Homo sapiens (Human), UniProt P30291)
Assay: Wee1 enzymatic activity inhibition, ADP-Glo luminescence assay
Details: recombinant Wee1, PolyE4Y1 substrate, 1 h room temperature
pEC50: −log10 of the molar value.
measurement type: pEC50

>  <molecule>
Cn1c2nc(Nc3ccc(N4CCCC(c5nc6cccc(C(N)=O)c6[nH]5)C4)cc3)ncc2c(=O)n1-c1ccccn1 (stereo not drawn)

>  <tested on>
recombinant Wee1 protein (Homo sapiens (Human), UniProt P30291)

>  <observed measurement>
6.00 to 7.00

$$$$
>  <molecule>
Cn1c(=O)c2cnc(Nc3ccc(N4CCN(Cc5ccc(-c6[nH]c7cc(F)cc8c7c6CCNC8=O)cc5)CC4)cc3)nc2n1-c1cccc(C(C)(C)O)n1

>  <tested on>
recombinant Wee1 protein (Homo sapiens (Human), UniProt P30291)

>  <observed measurement>
7.00 to 8.00

$$$$
>  <molecule>
C=CCn1c(=O)c2cnc(Nc3ccc(N4CCN(Cc5cc(Cc6n[nH]c(=O)c7ccccc67)ccc5F)CC4)cc3)nc2n1-c1cccc(C(C)(C)O)n1

>  <tested on>
recombinant Wee1 protein (Homo sapiens (Human), UniProt P30291)

>  <observed measurement>
7.00 to 8.00

$$$$
